Source of measurements: patent US20130071921A1

Quick reference for log10(koff) among some binders
Molecular target: T1, Recombinant human Dkk-1 (R&D Systems cat no. 1096-DK/CF), 10xHis tag at the C terminal (human, UniProt O94907 32-266)
T1 construct: the actual N-terminus of the purified protein is marked in bold italic after residue 30, but the mark is an image lost in the text; also called rhuDkk-1; hDkk-1
T1 sequence: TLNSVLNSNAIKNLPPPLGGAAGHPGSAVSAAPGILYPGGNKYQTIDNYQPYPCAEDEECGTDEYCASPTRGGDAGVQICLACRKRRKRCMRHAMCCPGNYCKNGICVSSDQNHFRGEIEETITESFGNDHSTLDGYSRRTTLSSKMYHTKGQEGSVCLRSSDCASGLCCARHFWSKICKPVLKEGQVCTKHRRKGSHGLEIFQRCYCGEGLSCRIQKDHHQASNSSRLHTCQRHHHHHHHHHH
Experiment: SPR screening 37C (BIAcore/ProteOn), Fab lysate over biotinylated human Dkk-1
Value Kind: log10(koff) (log10 of the value in s⁻¹)

Binder	Reading
L2.4G10 (Fab, V domains shown, tested as Fab (E. coli lysate, screening mode); human kappa CL and IgG2 CH1 not included here) VH: EVQLVESGGGLVQPGGSLRLSCAASGFTFSSYAISWVRQAPGKGLEWVASVSGWLDTYYPDSVKGRFTISRDNAKNSLYLQMNSLRAEDTAVYYCATSLRNYAFDYWGQGTTVTVSS VL: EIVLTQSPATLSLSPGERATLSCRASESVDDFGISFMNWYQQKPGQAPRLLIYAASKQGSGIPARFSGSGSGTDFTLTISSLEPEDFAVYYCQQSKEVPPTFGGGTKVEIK	-2.56
L2.1B11 (Fab, V domains shown, tested as Fab (E. coli lysate, screening mode); human kappa CL and IgG2 CH1 not included here) VH: EVQLVESGGGLVQPGGSLRLSCAASGFTFSSYAISWVRQAPGKGLEWVASVSGWFDTYYPDSVKGRFTISRDNAKNSLYLQMNSLRAEDTAVYYCATSLRNYAFDYWGQGTTVTVSS VL: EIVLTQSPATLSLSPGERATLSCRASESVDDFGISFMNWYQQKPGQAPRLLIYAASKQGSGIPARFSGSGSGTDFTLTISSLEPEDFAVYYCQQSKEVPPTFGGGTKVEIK	-2.68
SL3.1G9 (Fab, V domains shown, tested as Fab (E. coli lysate, screening mode); human kappa CL and IgG2 CH1 not included here) VH: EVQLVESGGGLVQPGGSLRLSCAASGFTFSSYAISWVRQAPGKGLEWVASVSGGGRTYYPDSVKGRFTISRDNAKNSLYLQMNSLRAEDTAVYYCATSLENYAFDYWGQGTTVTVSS VL: EIVLTQSPATLSLSPGERATLSCRASESVDDFGISFMNWYQQKPGQAPRLLIYAASKQGSGIPARFSGSGSGTDFTLTISSLEPEDFAVYYCQQLKEVPPTFGGGTKVEIK	-3.02
L2.1G4 (Fab, V domains shown, tested as Fab (E. coli lysate, screening mode); human kappa CL and IgG2 CH1 not included here) VH: EVQLVESGGGLVQPGGSLRLSCAASGFTFSSYAISWVRQAPGKGLEWVASVSGWFDTYYPDSVKGRFTISRDNAKNSLYLQMNSLRAEDTAVYYCATSLENYAFDKWGQGTTVTVSS VL: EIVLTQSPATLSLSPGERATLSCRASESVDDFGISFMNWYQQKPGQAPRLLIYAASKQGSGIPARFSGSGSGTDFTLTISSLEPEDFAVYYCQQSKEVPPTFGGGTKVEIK	-2.51
24m6 (Fab, V domains shown, tested as Fab (E. coli lysate, screening mode); human kappa CL and IgG2 CH1 not included here) VH: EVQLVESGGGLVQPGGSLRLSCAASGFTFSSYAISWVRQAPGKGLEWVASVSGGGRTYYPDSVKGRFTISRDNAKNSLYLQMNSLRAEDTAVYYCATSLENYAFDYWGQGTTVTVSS VL: EIVLTQSPATLSLSPGERATLSCRASESVDDFGISFMNWYQQKPGQAPRLLIYAGSKQGSGIPARFSGSGSGTDFTLTISSLEPEDFAVYYCQQSKEVPPTFGGGTKVEIK	-2.04
SL3.3C10 (Fab, V domains shown, tested as Fab (E. coli lysate, screening mode); human kappa CL and IgG2 CH1 not included here) VH: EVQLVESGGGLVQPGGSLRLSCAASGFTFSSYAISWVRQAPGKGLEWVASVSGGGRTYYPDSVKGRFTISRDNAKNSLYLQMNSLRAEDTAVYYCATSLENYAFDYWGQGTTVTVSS VL: EIVLTQSPATLSLSPGERATLSCRASESVDDFGISFMNWYQQKPGQAPRLLIYAASKQGSGIPARFSGSGSGTDFTLTISSLEPEDFAVYYCQQSKEVWPTFGGGTKVEIK	-1.92
L3.1A3 (Fab, V domains shown, tested as Fab (E. coli lysate, screening mode); human kappa CL and IgG2 CH1 not included here) VH: EVQLVESGGGLVQPGGSLRLSCAASGFTFSSYAISWVRQAPGKGLEWVASVSGWFHTYYPDSVKGRFTISRDNAKNSLYLQMNSLRAEDTAVYYCATSLRNYAFDYWGQGTTVTVSS VL: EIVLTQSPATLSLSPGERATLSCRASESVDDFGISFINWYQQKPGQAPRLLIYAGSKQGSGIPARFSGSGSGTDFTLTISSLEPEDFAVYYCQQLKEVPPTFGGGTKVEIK	-3.74
L3.1H3 (Fab, V domains shown, tested as Fab (E. coli lysate, screening mode); human kappa CL and IgG2 CH1 not included here) VH: EVQLVESGGGLVQPGGSLRLSCAASGFTFSSYAISWVRQAPGKGLEWVASVSGWLHTYYPDSVKGRFTISRDNAKNSLYLQMNSLRAEDTAVYYCATSLENYAFDYWGQGTTVTVSS VL: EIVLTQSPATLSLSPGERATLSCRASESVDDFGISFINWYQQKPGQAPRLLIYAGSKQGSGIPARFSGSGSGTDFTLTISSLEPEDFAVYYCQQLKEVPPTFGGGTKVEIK	-2.94
SL3.4E4 (Fab, V domains shown, tested as Fab (E. coli lysate, screening mode); human kappa CL and IgG2 CH1 not included here) VH: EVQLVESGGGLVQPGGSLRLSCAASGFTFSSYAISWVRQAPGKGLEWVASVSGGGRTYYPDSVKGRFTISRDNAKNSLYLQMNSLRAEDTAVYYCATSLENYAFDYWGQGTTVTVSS VL: EIVLTQSPATLSLSPGERATLSCRASESVDDFGISFMNWYQQKPGQAPRLLIYAASKQGSGIPARFSGSGSGTDFTLTISSLEPEDFAVYYCQQSKDVPPTFGGGTKVEIK	-2.11
SL3.3H8 (Fab, V domains shown, tested as Fab (E. coli lysate, screening mode); human kappa CL and IgG2 CH1 not included here) VH: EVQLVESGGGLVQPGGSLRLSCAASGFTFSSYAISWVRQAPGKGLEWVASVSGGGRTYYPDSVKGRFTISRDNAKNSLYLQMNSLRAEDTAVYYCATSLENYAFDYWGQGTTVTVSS VL: EIVLTQSPATLSLSPGERATLSCRASESVDDFGISFMNWYQQKPGQAPRLLIYAASKQGSGIPARFSGSGSGTDFTLTISSLEPEDFAVYYCQQSKEVPGTFGGGTKVEIK	-1.64
